Kindly supply the reported growth values for the records listed here.
- Test system: KM12 colon
- procedure-details: NCI-60 one-dose screen, 48 h (100 = growth as untreated, 0 = no growth, -100 = all killed)
- condition-label: 10 µM unless noted
This is part of a sample that, as a whole, favours compounds with a hit. Of some 83,000 tested, about 20% had one in any assay.
One number for each entry, in %.

Worked examples follow.
compound=NS(=O)(=O)c1ccc(-n2cc(-c3cccc(NC(=O)c4cc(N5CCOCC5)cc(C(F)(F)F)c4)c3)nn2)cc1 unit_of_measurement=% experimental_result=79
compound="COc1ccc(NC(=O)[C@@H](N)Cc2ccccc2)cc1C(=O)Nc1cccc(C2CC(=O)c3c(cc(OC)c(OC)c3OC)O2)c1 (some centres not stated)" unit_of_measurement=% experimental_result=35.1
compound=CCC(C)(C)c1ccc(OCCCCCCN2CCN(c3ccncc3)CC2)cc1 unit_of_measurement=% experimental_result=7.93
compound=CC(=O)N1CCN(Cc2ccc3c(NNC(=O)c4cnccn4)nc4cc(F)ccc4n23)CC1 unit_of_measurement=% experimental_result=32.6
compound=COc1ccc(C(=O)/C=C/c2ccc(Oc3nc(Nc4ccc(F)cc4)nc(N(C)C)n3)c(OC)c2)cc1 unit_of_measurement=% experimental_result=70.2
compound="CN(C)c1nc(NCCNS(=O)(=O)c2ccc(C3=Nc4c(N)nc(N)nc4NC(c4ccccc4)C3)cc2)nc(Nc2ccc(F)cc2)n1 (configuration not stated)" unit_of_measurement=% experimental_result=33.8

For each of the compounds below, note its growth.
1. CC(C)CSc1nc(NCCc2c[nH]c3ccccc23)c(C#N)c(-c2ccc(Cl)cc2)n1
2. CCN(CC)c1ccc(/C=N/Nc2nc(-c3ccc(Br)cc3)cs2)c(O)c1
3. COc1ccc(-c2nnc3ccc(N/N=C/c4ccc(C)cc4)nn23)cc1
4. Cc1cc2c(cc1Cl)C(=O)/C(=C/c1ccccc1)O2
5. CC(=O)Nc1ccc(-c2cn(-c3cccc(C(=O)Nc4ccc(N5CCN(C)CC5)cc4)c3)nn2)cn1
6. CC(C)c1ccc2c(N)c(C(=O)Nc3ccc(C(F)(F)F)cn3)sc2n1
7. C=C1CCC2C3(C)COC(c4ccccc4)OC3CCC2(C)C1CC(NCc1ccccc1)C1=CCOC1=O (configuration not stated)

Completion:
[35.1, 86.3, 68.1, 17.8, 68.9, 57, 85.6]

For each of the compounds below, note its growth.
1. Cc1ccc(C(=O)C(c2c[nH]c3ccccc23)c2c[nH]c3ccccc23)cc1
2. Cc1cnc(C(=O)NNc2nc3cc(F)ccc3n3c(C(=O)N4CC5CC(C4)N5)ccc23)cn1
3. COc1ccc(Cc2nn(CC(=O)N/N=C/c3ccc(F)cc3)c(=O)c3c(C)noc23)cc1
4. CC1=C(C(=O)OC(C)C)C(c2cccc(O)c2)NC(=S)N1 (configuration not stated)
5. COc1ccc(-c2ccnc(SCc3cc4ccccc4[nH]c3=O)n2)cc1OC
6. O=C(Cn1c2c(sc1=O)[C@H]1[C@@H](O)[C@@H](O)[C@H](O)[C@@H]1CS2)N1CCOCC1
7. C#CCOc1ccc(/C=N/Nc2nc(-c3cc4cc(Br)ccc4oc3=O)cs2)cc1OC
8. O=C(NNc1nc2cc(F)ccc2n2c(C(=O)N3CCN(C4CC4)CC3)ccc12)c1ncccn1

Completion:
[26.1, 39.8, 73.1, 106, 33.7, 103, 51.1, 35.7]
